molecular target: T1, AFP158/HLA-A*02:01 complex (human); assay: SPR, scFv-mIgG2aFc from supernatant captured, complex as analyte
T1 construct: biotinylated on the BSP by BirA for ELISA and panning; also called biotinylated AFP158/HLA-A*02:01 complex; Bio-AFP158
resultType: koff (s⁻¹)

| binder | quantitativeReadout |
| --- | --- |
| AS179732 scFv-mIgG2aFc (Fc fusion, not shown: a dimerising Fc or GST, Camel scFv; i647-labelled for flow cytometry) NFMLTQPPSMSGSPRQSVTISCTGSSSNIGGNYVNWYQHLPGTAPKLLIYDNSNRASGVPERFSGSKSGSSASLTITGLQAEDEGDYYCASWDDSLSGAVFGGGTHLTVLGGGGSGGGGSGGGGSEVQLVESGGGLVQPGGSLRLSCAASGFTFLNYAMSWVRQAPGKGLEWVSSNSGAGSTYYSDSVKGRFTISRDYAKNVVYLQLNSLKTEDTGMYYCAKGTNVGSWSSLHYWGQGTQVTVSS | 0.0075 |
| AS179732 VL1g1VH1 scFv-mIgG2aFc (Fc fusion, not shown: a dimerising Fc or GST; small tags and cut ends) scFv: QSVLTQPPSASGTPGQRVTISCSGSSSNIGGNYVNWYQQLPGTAPKLLIYDNSNRASGVPDRFSGSKSGTSASLAISGLQSEDEADYYCASWDDSLSGAVFGGGTKLTVLGGGGSGGGGSGGGGSEVQLVESGGGLVQPGGSLRLSCAASGFTFLNYAMSWVRQAPGKGLEWVSSNSGAGSTYYSDSVKGRFTISRDNSKNTLYLQMNSLRAEDTAVYYCAKGTNVGSWSSLHYWGQGTLVTVSS | 0.056 |

Hello, the source for this data is patent US20240279318A1, in case you need it.
